Origin of values: the supplement of paper PMC10567573

Documented protein stability index across a set of variants
B1: ANKRD40 (parent)
chain: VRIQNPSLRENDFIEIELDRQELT

Variants of: B1
ASSAY_DETAILS: protein stability index of a GFP-peptide fusion (GPS, HEK-293T) (PSI 1-6); higher = more stable;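 further: lentivirally expressed fusions sorted by FACS into six bins by GFP to DsRed ratio, PSI derived from sequencing read proportions per bin multiplied by bin number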
RUN_PARAMETERS: c terminus: a fixed tail appended
Could you keep your reply to the number by itself?

Before answering, review these 3 worked examples.
>>> df
   sequence_change             test_readout  measured_result
0              Q4C  protein stability index             2.01
1             E17P  protein stability index             3.44
2              L8T  protein stability index             3.42

Task: I have this variant here, `N5Q` , and I need its recorded protein stability index.
Output: 2.07

Task: Now consider `Q4D` .
Output: 2.88

Task: Let us now turn to `E22D`
Output: 2.87

Task: Param item: `Q21A`
Output: 2.05

Task: Moving on to the next variant: `D19S`
Output: 1.92

Task: And `P6M` ?
Output: 2.18

Task: Now the variant `P6K`
Output: 2.67
